Would you kindly list selectivity ratio for each of these molecules?
Experiment: Selectivity index, ratio of IC50 for human […] cells to IC50 for Plasmodium falciparum K1
Assay type: toxicity, cell-based
Settings: MCR5 cells (cytotoxicity) versus Plasmodium falciparum K1, read-out: Ratio IC50
One number for each entry.

The examples below pair each entry with its known result.
C[C@@H]1C[C@H](C)C[C@H](C)[C@@H](O)CC(=O)O[C@H]([C@@H]2CCC[C@H]2C(=O)OCCN2CCOCC2)C/C=C/C=C(/C#N)[C@H](O)[C@@H](C)C1 = 419
CCOC(=O)[C@@H]1CCC[C@H]1[C@@H]1C/C=C/C=C(/C#N)[C@H](O)[C@@H](C)C[C@H](C)C[C@H](C)C[C@H](C)[C@@H](O)CC(=O)O1 = 323
CCCSC(=O)[C@@H]1CCC[C@H]1[C@@H]1C/C=C/C=C(/C#N)[C@H](O)[C@@H](C)C[C@H](C)C[C@H](C)C[C@H](C)[C@@H](O)CC(=O)O1 = 20

Need selectivity ratio for each of these molecules.
1. CC(=O)O[C@H]1CC(=O)O[C@H]([C@@H]2CCC[C@H]2C(=O)O)C/C=C/C=C(/C#N)[C@H](OC(C)=O)[C@@H](C)C[C@H](C)C[C@H](C)C[C@@H]1C
2. CCCOC(=O)[C@@H]1CCC[C@H]1[C@@H]1C/C=C/C=C(/C#N)[C@H](O)[C@@H](C)C[C@H](C)C[C@H](C)C[C@H](C)[C@@H](O)CC(=O)O1
3. C[C@@H]1C[C@H](C)C[C@H](C)[C@@H](O)CC(=O)O[C@H]([C@@H]2CCC[C@H]2C(=O)OCc2ccccc2)C/C=C/C=C(/C#N)[C@H](O)[C@@H](C)C1

Reply:
[522, 202, 165]

Hi, could you look up selectivity ratio for each item in my list?
1. C#CCOC(=O)[C@@H]1CCC[C@H]1[C@@H]1C/C=C/C=C(/C#N)[C@H](O)[C@@H](C)C[C@H](C)C[C@H](C)C[C@H](C)[C@@H](O)CC(=O)O1
2. C[C@@H]1C[C@H](C)C[C@H](C)[C@@H](O)CC(=O)O[C@H]([C@@H]2CCC[C@H]2C(=O)NCC(=O)O)C/C=C/C=C(/C#N)[C@H](O)[C@@H](C)C1
3. C[C@@H]1C[C@H](C)C[C@H](C)[C@@H](O)CC(=O)O[C@H]([C@@H]2CCC[C@H]2C(=O)OCc2cn(-c3cccnc3)nn2)C/C=C/C=C(/C#N)[C@H](O)[C@@H](C)C1
4. C[C@@H]1C[C@H](C)C[C@H](C)[C@@H](O)CC(=O)O[C@H]([C@@H]2CCC[C@H]2C(=O)OCc2cn(-c3cnc4ccccc4c3)nn2)C/C=C/C=C(/C#N)[C@H](O)[C@@H](C)C1
5. C[C@@H]1C[C@H](C)C[C@H](C)[C@@H](O)CC(=O)O[C@H]([C@@H]2CCC[C@H]2C(=O)Sc2ccccc2)C/C=C/C=C(/C#N)[C@H](O)[C@@H](C)C1
6. C[C@@H]1C[C@H](C)C[C@H](C)[C@@H](O)CC(=O)O[C@H]([C@@H]2CCC[C@H]2C(=O)N[C@@H](Cc2ccc(O)cc2)C(=O)O)C/C=C/C=C(/C#N)[C@H](O)[C@@H](C)C1

Reply:
[462, 2850, 143, 15600, 9, 206]

Okay, here is my list. What is selectivity ratio for each of these?
1. C[C@@H]1C[C@H](C)C[C@H](C)[C@@H](O)CC(=O)O[C@H]([C@@H]2CCC[C@H]2C(=O)O)C/C=C/C=C(/C#N)[C@H](O)[C@@H](C)C1
2. C=CCOC(=O)[C@@H]1CCC[C@H]1[C@@H]1C/C=C/C=C(/C#N)[C@H](O)[C@@H](C)C[C@H](C)C[C@H](C)C[C@H](C)[C@@H](O)CC(=O)O1
3. C[C@@H]1C[C@H](C)C[C@H](C)[C@@H](O)CC(=O)O[C@H]([C@@H]2CCC[C@H]2C(=O)OCc2cn(CSc3ccccc3)nn2)C/C=C/C=C(/C#N)[C@H](O)[C@@H](C)C1
4. COC(=O)[C@@H]1CCC[C@H]1[C@@H]1C/C=C/C=C(/C#N)[C@H](O)[C@@H](C)C[C@H](C)C[C@H](C)C[C@H](C)[C@@H](O)CC(=O)O1

Reply:
[216, 59.6, 542000, 1460]
